Where these numbers come from: patent US20230406850A1

Experiment notes: Pharmacokinetics of crystalline form III, fasting and non-fasting
Assay type: in vivo, Beagle dog
Experimental context: male, beagle, dog, whole blood, po, 100 mg/kg, 100 mg/kg po, Non-fast, blood, male; read-out: AUClast
Endpoint name: AUC(0-t) (µg·h/mL)
Quick reminder: number only, in µg·h/mL, skip the unit.

Looking up COC(=O)N1CCO[C@@H](Cc2c(-c3c(F)cc(S(N)(=O)=O)cc3F)nc3cc(Cl)ccn23)C1 [Crystalline form III] , I found its AUC(0-t) recorded as 557
